- Test system: Enterococcus faecium
- test-details: Antibacterial activity against Enterococcus faecium ATCC 49452 at 0 % serum
- Type: functional
Recorded MIC by entry
Answer format: numeric, µg/mL implied, no suffix.

{"smiles-input": "CCCCCCCCCC(=O)N[C@@H](Cc1c[nH]c2ccccc12)C(=O)N[C@H](CC(N)=O)C(=O)N[C@@H](CCO)C(=O)N[C@@H]1C(=O)NCC(=O)N[C@@H](CCCNCc2ccc(S(=O)(=O)N3CCN(c4ccccc4)CC3)cc2)C(=O)N[C@@H](CC(=O)O)C(=O)N[C@H](C)C(=O)N[C@@H](CC(=O)O)C(=O)NCC(=O)N[C@H](CO)C(=O)N[C@@H]([C@H](C)CC(=O)O)C(=O)N[C@@H](CC(=O)c2ccccc2N)C(=O)O[C@@H]1C", "obs-value": 1.56}

Moving on to another molecule below.
The recorded MIC for CCCCCCCCCC(=O)N[C@@H](Cc1c[nH]c2ccccc12)C(=O)N[C@H](CC(N)=O)C(=O)N[C@@H](CCO)C(=O)N[C@@H]1C(=O)NCC(=O)N[C@@H](CCCNCc2nccs2)C(=O)N[C@@H](CC(=O)O)C(=O)N[C@H](C)C(=O)N[C@@H](CC(=O)O)C(=O)NCC(=O)N[C@H](CO)C(=O)N[C@@H]([C@H](C)CC(=O)O)C(=O)N[C@@H](CC(=O)c2ccccc2N)C(=O)O[C@@H]1C is 6.24

###

- test-details: Half-life in mice
- Assay type: ADME, organism-based
- measurement-conditions: mouse, in vivo
reported-property: half-life (h)
Answer format: numeric, h implied, no suffix.

The recorded half-life for CCCCCCCCCC(=O)N[C@@H](Cc1c[nH]c2ccccc12)C(=O)N[C@H](CC(N)=O)C(=O)N[C@@H](CC(=O)O)C(=O)N[C@@H]1C(=O)NCC(=O)N[C@@H](CCCNCc2ccc(-c3ccccc3)cc2)C(=O)N[C@@H](CC(=O)O)C(=O)N[C@H](C)C(=O)N[C@@H](CC(=O)O)C(=O)NCC(=O)N[C@H](CO)C(=O)N[C@@H]([C@H](C)CC(=O)O)C(=O)N[C@@H](CC(=O)c2ccccc2N)C(=O)O[C@@H]1C is 7.9

###

- test-details: Vd in mice
- Type: ADME, organism-based
- measurement-conditions: mouse, in vivo
reported-property: Vd

The recorded Vd for CCCCCCCCCC(=O)N[C@@H](Cc1c[nH]c2ccccc12)C(=O)N[C@H](CC(N)=O)C(=O)N[C@@H](CC(=O)O)C(=O)N[C@@H]1C(=O)NCC(=O)N[C@@H](CCCNCc2ccc(-c3ccccc3)cc2)C(=O)N[C@@H](CC(=O)O)C(=O)N[C@H](C)C(=O)N[C@@H](CC(=O)O)C(=O)NCC(=O)N[C@H](CO)C(=O)N[C@@H]([C@H](C)CC(=O)O)C(=O)N[C@@H](CC(=O)c2ccccc2N)C(=O)O[C@@H]1C is 0.107 L/kg

###

- Tested on: Enterococcus faecium
- test-details: Antibacterial activity against Enterococcus faecium ATCC 49452 at 10 % serum
- Format: functional
- measurement-conditions: ATCC 49452, Serum
reported-property: MIC

{"smiles-input": "CCCCCCCCCC(=O)N[C@@H](Cc1c[nH]c2ccccc12)C(=O)N[C@H](CC(N)=O)C(=O)N[C@@H](CCO)C(=O)N[C@@H]1C(=O)NCC(=O)N[C@@H](CCCNCc2ccc(S(=O)(=O)N3CCN(c4ncccn4)CC3)cc2)C(=O)N[C@@H](CC(=O)O)C(=O)N[C@H](C)C(=O)N[C@@H](CC(=O)O)C(=O)NCC(=O)N[C@H](CO)C(=O)N[C@@H]([C@H](C)CC(=O)O)C(=O)N[C@@H](CC(=O)c2ccccc2N)C(=O)O[C@@H]1C", "MIC": "12.5 µg/mL"}
{"smiles-input": "CCCCCCCCCC(=O)N[C@@H](Cc1c[nH]c2ccccc12)C(=O)N[C@H](CC(N)=O)C(=O)N[C@@H](CCO)C(=O)N[C@@H]1C(=O)NCC(=O)N[C@@H](CCCNCc2ccccc2F)C(=O)N[C@@H](CC(=O)O)C(=O)N[C@H](C)C(=O)N[C@@H](CC(=O)O)C(=O)NCC(=O)N[C@H](CO)C(=O)N[C@@H]([C@H](C)CC(=O)O)C(=O)N[C@@H](CC(=O)c2ccccc2N)C(=O)O[C@@H]1C", "MIC": "12.5 µg/mL"}

The recorded MIC for CCCCCCCCCC(=O)N[C@@H](Cc1c[nH]c2ccccc12)C(=O)N[C@H](CC(N)=O)C(=O)N[C@@H](CCO)C(=O)N[C@@H]1C(=O)NCC(=O)N[C@@H](CCCNCc2nccs2)C(=O)N[C@@H](CC(=O)O)C(=O)N[C@H](C)C(=O)N[C@@H](CC(=O)O)C(=O)NCC(=O)N[C@H](CO)C(=O)N[C@@H]([C@H](C)CC(=O)O)C(=O)N[C@@H](CC(=O)c2ccccc2N)C(=O)O[C@@H]1C is 6.25 µg/mL

###

- Test system: Enterococcus faecalis
- test-details: Antibacterial activity against Enterococcus faecalis ATCC 6569
- Assay type: functional
Recorded MIC by entry
// unit must come after the numeric part

Consider the following illustrative entries.
{"smiles-input": "CCCCCCCCCC(=O)N[C@@H](Cc1c[nH]c2ccccc12)C(=O)N[C@H](CC(N)=O)C(=O)N[C@@H](CCO)C(=O)N[C@@H]1C(=O)NCC(=O)N[C@@H](CCCNC(=O)c2ccccc2N)C(=O)N[C@@H](CC(=O)O)C(=O)N[C@H](C)C(=O)N[C@@H](CC(=O)O)C(=O)NCC(=O)N[C@H](CO)C(=O)N[C@@H]([C@H](C)CC(=O)O)C(=O)N[C@@H](CC(=O)c2ccccc2N)C(=O)O[C@@H]1C", "MIC": "3.1 µg/mL"}
{"smiles-input": "CCCCCCCCCC(=O)N[C@@H](Cc1c[nH]c2ccccc12)C(=O)N[C@H](CC(N)=O)C(=O)N[C@@H](CCO)C(=O)N[C@@H]1C(=O)NCC(=O)N[C@@H](CCCNC(=O)c2ccccc2)C(=O)N[C@@H](CC(=O)O)C(=O)N[C@H](C)C(=O)N[C@@H](CC(=O)O)C(=O)NCC(=O)N[C@H](CO)C(=O)N[C@@H]([C@H](C)CC(=O)O)C(=O)N[C@@H](CC(=O)c2ccccc2N)C(=O)O[C@@H]1C", "MIC": "25 µg/mL"}

Moving on to another compound below.
The recorded MIC for CCCCCCCCCC(=O)N[C@@H](Cc1c[nH]c2ccccc12)C(=O)N[C@H](CC(N)=O)C(=O)N[C@@H](CCO)C(=O)N[C@@H]1C(=O)NCC(=O)N[C@@H](CCCNC(=O)c2c(N)cccc2F)C(=O)N[C@@H](CC(=O)O)C(=O)N[C@H](C)C(=O)N[C@@H](CC(=O)O)C(=O)NCC(=O)N[C@H](CO)C(=O)N[C@@H]([C@H](C)CC(=O)O)C(=O)N[C@@H](CC(=O)c2ccccc2N)C(=O)O[C@@H]1C is 3.1 µg/mL

###

- Test system: Enterococcus faecium
- test-details: Antibacterial activity against Enterococcus faecium ATCC 49452 at 0 % serum
- Format: functional
reported-property: MIC (mg/L)
Answer format: numeric, mg/L implied, no suffix.

Consider the following illustrative entries.
{"smiles-input": "CCCCCCCCCC(=O)N[C@@H](Cc1c[nH]c2ccccc12)C(=O)N[C@H](CC(N)=O)C(=O)N[C@@H](CCO)C(=O)N[C@@H]1C(=O)NCC(=O)N[C@@H](CCCNCc2ccc(/C=C/C(=O)N3CCN(c4ccc(F)cc4)CC3)cc2)C(=O)N[C@@H](CC(=O)O)C(=O)N[C@H](C)C(=O)N[C@@H](CC(=O)O)C(=O)NCC(=O)N[C@H](CO)C(=O)N[C@@H]([C@H](C)CC(=O)O)C(=O)N[C@@H](CC(=O)c2ccccc2N)C(=O)O[C@@H]1C", "MIC / mg/L": 3.13}
{"smiles-input": "CCCCCCCCCC(=O)N[C@@H](Cc1c[nH]c2ccccc12)C(=O)N[C@H](CC(N)=O)C(=O)N[C@@H](CCO)C(=O)N[C@@H]1C(=O)NCC(=O)N[C@@H](CCCNCc2cccc([N+](=O)[O-])c2)C(=O)N[C@@H](CC(=O)O)C(=O)N[C@H](C)C(=O)N[C@@H](CC(=O)O)C(=O)NCC(=O)N[C@H](CO)C(=O)N[C@@H]([C@H](C)CC(=O)O)C(=O)N[C@@H](CC(=O)c2ccccc2N)C(=O)O[C@@H]1C", "MIC / mg/L": 6.25}

Moving on to another molecule below.
For CCCCCCCCCC(=O)N[C@@H](Cc1c[nH]c2ccccc12)C(=O)N[C@H](CC(N)=O)C(=O)N[C@@H](CCO)C(=O)N[C@@H]1C(=O)NCC(=O)N[C@@H](CCCNCc2ccc(C#N)cc2)C(=O)N[C@@H](CC(=O)O)C(=O)N[C@H](C)C(=O)N[C@@H](CC(=O)O)C(=O)NCC(=O)N[C@H](CO)C(=O)N[C@@H]([C@H](C)CC(=O)O)C(=O)N[C@@H](CC(=O)c2ccccc2N)C(=O)O[C@@H]1C on Enterococcus faecium, measured MIC was 6.25
